ASSAY REMARKS: protease stability score; higher = more stable; yeast display proteolysis, trypsin and chymotrypsin;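 further: relative to predicted unfolded state with 0 unfolded-like and 1 meaning tenfold more protease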

QUERY SEQUENCE: SENEKILHDLSKELFDIYHTGNEERWSEMADPHVKIDVNGQEYHGREEVEEELEHWRRRFKNARYEIHKIHVFDGRLLIEGHINIDGKKRQIHFRIHVVNGKIKEMRIEIR
protease stability score: 1.82
//
QUERY SEQUENCE: DELEKHLIHLAEIFIHNKLTGDEEELQRFMDPSVRTIVGEFHYHGRELVTEWLRREWEEMRIHEIHITHVRFQGDKVIIEGRLDIEVNGRRVDTHALIILVVVDGVMKSVKFEII
protease stability score: 1.23
//
QUERY SEQUENCE: HDDHESADKFIREEIEYQRTGDWHRFEELLDPDVRLEQGNYHAHGREEVSTIFLMHLTRVKNMRMEVTRMEIINGRLSLHLKLDFNGREFHFSTIVQKVNGKWIIKAEHFI
protease stability score: 0.507
//
QUERY SEQUENCE: SEIEKDAKDALKWFVDTTRTGDEDLWLRLLDPHVRVIIGDKEYHGREESEKLIRHLSDLFGVDKVEVILNLERIHIQGNKIDVKGKLEVRQGNYTDDREIEMVMIKVNGRWFIKYEVIK
protease stability score: 1.18
//
QUERY SEQUENCE: DEEKKQVKDMMELYFRLFVTGNEEILTHLADPDTRIEIDGVSRVGMEEFKRMLEEYLKRLGADHIELRHWDIKFFNGRAINRLHIHIHYGDKSEDVRVTLILEKIDGRWRNRSEHREVG
protease stability score: 0.771
